FYI, the data here is from patent US20250250357A1.

target: T1, human MSLN-R3 protein (human, UniProt Q13421 487-598); experiment: ELISA on coated antigen, antibody 1 nM
T1 construct: also called hMSLN-R3
T1 sequence (Q13421 495-606, form in doubt): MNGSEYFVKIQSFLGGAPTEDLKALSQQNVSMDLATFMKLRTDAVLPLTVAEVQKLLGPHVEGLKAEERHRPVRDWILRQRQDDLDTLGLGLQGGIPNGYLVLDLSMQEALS
quantity measured: OD450 (OD450)

INSERT INTO measurements (binder, quantity_measured, value_observed) VALUES
  ('F7.33.24-H2 (scFv, not shown: small tags and cut ends, also called S009-F7.33.24 humanized antibody VH1 + VL2) scFv: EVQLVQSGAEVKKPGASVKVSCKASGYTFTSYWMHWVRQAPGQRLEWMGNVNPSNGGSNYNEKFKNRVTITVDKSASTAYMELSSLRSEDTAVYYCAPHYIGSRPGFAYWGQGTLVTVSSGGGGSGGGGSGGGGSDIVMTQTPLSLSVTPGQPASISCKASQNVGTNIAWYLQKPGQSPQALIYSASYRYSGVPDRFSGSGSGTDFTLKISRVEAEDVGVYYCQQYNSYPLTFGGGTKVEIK', 'OD450', 0.42);
